Source: patent US11505543B2

# Tested on: recombinant NL4-3 virus (nef section replaced with Renilla luciferase gene) in MT-2 cells
# TEST DETAILS: HIV cell culture assay (antiviral activity, luciferase readout)
# Type: cell-based
# TEST SETTINGS: Renilla, NL43, MT-2 cells infected for 4-5 days with recombinant NL4-3 Renilla luciferase virus, serial dilutions of compound
METRIC NAME: EC50
Please don't drop the unit; write it after the number.

Field EC50 (entry Cc1cc(C(F)F)nn1CC(=O)N[C@@H](Cc1cc(F)cc(F)c1)c1nc2cc(-c3ccccc3F)ccc2c(=O)n1-c1ccc(Cl)c2c(NS(=O)(=O)C3CC3)nn(CC(F)F)c12 ) reads 8.4 nM

Item: Cc1cc(Cl)ccc1-c1ccc2c(=O)n(-c3ccc(S(=O)(=O)N4CCOCC4)cc3)c([C@H](Cc3cc(F)cc(F)c3)NC(=O)Cn3ccc(C4CC4)n3)nc2c1 | EC50: 70 nM

Form field EC50, entry CC(C)c1ccc(-n2c([C@H](Cc3cc(F)cc(F)c3)NC(=O)Cn3nc(C(F)F)c4c3C(F)(F)[C@@H]3C[C@H]43)nc3cc(-c4nnn[nH]4)ccc3c2=O)cn1 : 4130 nM
